test system: CEM cells HIV-1 protection, formazan growth assay; assay: NCI AIDS Antiviral Assay;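 active = compounds giving half or more protection of infected cells from virus-caused growth loss, again on retest; inactive = the rest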
Your reply should match one of these outcome classes. active, inactive

### Prompt Give the logged outcome of this assay for the following compound: CSC1=C(C#N)C(=S)N=C(N)C1C(=O)Nc1ccc(C)cc1 (centres undefined)
### Response inactive

### Prompt Queued: COC(=O)[C@H](Cc1c[nH]c2ccccc12)NP(=O)(O)OCC1C=CC(n2cc(C)c(=O)[nH]c2=O)O1 (some centres undefined)
### Response active

### Prompt Queued: Cc1cnc(SCCN2CCN(C)CC2)nc1-c1cc2ccccc2s1
### Response inactive

### Prompt Queued: CN(Cc1ccccc1)C(=NC#N)N(Cc1ccccc1)Cc1ccccc1
### Response inactive

====

system: CEM cells HIV-1 protection, formazan growth assay; assay: NCI AIDS Antiviral Assay;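 active = compounds giving half or more protection of infected cells from virus-caused growth loss, again on retest; inactive = the rest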
Your reply should match one of these outcome classes. label 1 = active, label 0 = inactive

### Prompt Give the logged outcome of this assay for the following molecule: CC(=O)C(=Cc1ccc(Br)cc1)C(C)=O
### Response label 0

### Prompt Queued: CCCC(=O)Nc1cc([N+](=O)[O-])c([N+](=O)[O-])cc1OC
### Response label 0

### Prompt Queued: CCC[CH2][Sn]([CH2]CCC)([O]C(=O)c1cc(OC)c(OC)cc1OC)[O]C(=O)c1cc(OC)c(OC)cc1OC
### Response label 0

### Prompt Queued: Cc1nc2c(c(=O)[nH]1)S/C(=C(/C#N)c1nc3ccccc3[nH]1)N2c1ccccc1
### Response label 0

### Prompt Queued: CCOc1ccc(NC(=O)/C(CC(=O)c2c[n+](=O)c3ccccc3n2[O-])=N\OCCCc2ccccc2)cc1
### Response label 0

### Prompt Queued: COc1cccc2c1CCc1ccccc1CC2=O
### Response label 0

### Prompt Queued: Cc1cn(C2CC(N=[N+]=[N-])C(CO[Si](C)(C)C(C)(C)C)O2)c(=O)[nH]c1=O (centres undefined)
### Response label 1

### Prompt Queued: c1ccc(N=c2sc3ccccc3sc2=Nc2ccccc2)cc1
### Response label 0

### Prompt Queued: CCN(CC)CCC(=O)N1C/C(=C/c2ccccc2)C(=O)/C(=C\c2ccccc2)C1
### Response label 0

### Prompt Queued: CCCCCCCCCCCCCCCCOC1OC(CBr)C(O)C(O)C1O (centres undefined)
### Response label 0

### Prompt Queued: CC1(C)OCC(C2OC3OC(C)(C)OC3C2OC(=S)SSC(=S)OC2C(C3COC(C)(C)O3)OC3OC(C)(C)OC32)O1 (centres undefined)
### Response label 0

### Prompt Queued: COC(=O)N1c2c(ccc3c2OCO3)C23C4CN5CCCC(CCC12C(=O)OC)(CC4=O)C53 (centres undefined)
### Response label 0

### Prompt Queued: O=C1C(=Cc2ccccc2O)N=C(c2ccccc2)N1n1c(-c2ccccc2)nc2ccccc2c1=O
### Response label 0

### Prompt Queued: COC(=O)c1cc2ccc(OC(C)=O)c(OC(C)=O)c2cn1
### Response label 0

### Prompt Queued: COC(=O)C(=O)C(C(=O)C(=O)Nc1ccc(C)c(C)c1)c1nc2ccc([N+](=O)[O-])cc2[nH]c1=O (centres undefined)
### Response label 0

### Prompt Queued: S=c1sc(-c2ccccc2)c[se]1
### Response label 0

### Prompt Queued: O=C1CCCc2c(O)ccc(O)c21
### Response label 0

### Prompt Queued: O=c1[nH]nc(Cc2ccccc2)n1/N=C/c1c(O)ccc2ccccc12
### Response label 1

### Prompt Queued: COc1cc2c(cc1OCCN1C(=O)c3cccc4cccc(c34)C1=O)N=C[C@@H]1CCCN1C2=O
### Response label 0

### Prompt Queued: CC(=O)Oc1cccc2c1C(=O)C1CC(O)C(O)C3OC(C)(C)OC2(C)C13 (centres undefined)
### Response label 0

### Prompt Queued: COC12c3ccccc3-c3ccccc3C1[C@@H](C(=O)O)[C@H]2C(=O)O (some centres undefined)
### Response label 0

### Prompt Queued: COc1cc(C(Cc2ccnc3ccccc23)Cc2ccnc3ccccc23)ccc1N(C)C
### Response label 0

### Prompt Queued: Nc1ccc(N)c(N2C(=O)c3ccccc3C2=O)c1
### Response label 0

### Prompt Queued: N#CC1(C#N)C(c2ccccc2)C=CC(c2ccc([N+](=O)[O-])cc2)C1(C#N)C#N (centres undefined)
### Response label 0

Values compiled from PubChem BioAssay AID179.
